- STUDY TARGET: T1, PSMGFR peptide (Primary Sequence of the MUC1 Growth Factor Receptor)
- T1 construct: synthetic peptide immobilised on ELISA plates; also called MUC1* peptide; MUC1* extra cellular domain peptide
- T1 peptide: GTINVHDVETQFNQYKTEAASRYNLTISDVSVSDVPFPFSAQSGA
- EXPERIMENTAL DETAILS: ELISA
TEST READOUT: binding result

BINDER	TEST READOUT	TEST VALUE
5C6F3 mouse monoclonal antibody (antibody, V domains shown, raised against PSMGFR; also called MN-5C6F3; anti-PSMGFR antibody 5C6F3) VH: EVMLVESGGGLVKPGGSLKLSCAASGFTFSTYAMSWVRQTPEKRLEWVAAISNGGGYTYYPDSLKGRFTISRDNAKNTLYLQMSSLRSEDTATYYCARRYYDHYFDYWGQGTALTVSS VL: DVLMTQTPLSLPVSLGDQASISCRSSQTIVHSNGNTYLEWYLQKPGQSPKLLIYKVSNRFSGVPDRFSGSGSGTDFTLKISRVEAEDLGVYYCFQDSHVPLTFGAGTKLELK	binding result	binds
